Organism: Rattus norvegicus
Procedure summary: DrugMatrix - Regimen: Daily Repeat
Type: toxicity, organism-based, Sprague-Dawley
Parameters: regimen Daily Repeat, gender Male, age 6-8 weeks
Cond: in vivo, po, 1500 mg/kg, 120 h, tissue Plasma, route oral GAVAGE, dose level High, time 5 day, vehicle .5 % CMC
Assay readout: ALBUMIN (G/DL)
Output spec: scalar in G/DL, unitless text.

Noted for `CCOC(=O)[C@H](CCc1ccccc1)N[C@@H](C)C(=O)N1CCC[C@H]1C(=O)O` : its ALBUMIN reads 4.47

Noted for Nc1nc2c(c(=O)[nH]1)N(C=O)C(CNc1ccc(C(=O)N[C@@H](CCC(=O)O)C(=O)O)cc1)CN2 (stereo not given in full) [LEUCOVORIN] : its ALBUMIN reads 4.3

Noted for C[C@@H](O)[C@H]1C(=O)N2C(C(=O)O)=C(S[C@@H]3CN[C@H](C(=O)N(C)C)C3)[C@H](C)[C@H]12 [MEROPENEM] : its ALBUMIN reads 4.47

Noted for O=c1cc(-c2ccccc2)oc2ccc3ccccc3c12 [BETA-NAPHTHOFLAVONE] : its ALBUMIN reads 3.6

Noted for CC(C)(Sc1cc(C(C)(C)C)c(O)c(C(C)(C)C)c1)Sc1cc(C(C)(C)C)c(O)c(C(C)(C)C)c1 [PROBUCOL] : its ALBUMIN reads 4.33

* * *

Organism: Rattus norvegicus
Procedure summary: DrugMatrix - Regimen: Daily Repeat
Assay type: toxicity, organism-based, Sprague-Dawley
Set-up: regimen Daily Repeat, gender Male, age 6-8 weeks
Cond: in vivo, po, 0 mg/kg, 120 h, tissue Plasma, route oral GAVAGE, dose level Control, time 5 day, vehicle 100 % SALINE
Assay readout: CREATININE (mg/dL)
Output spec: scalar in mg/dL, unitless text.

1. CCCc1nn(C)c2c(=O)[nH]c(-c3cc(S(=O)(=O)N4CCN(C)CC4)ccc3OCC)nc12 = 0.35
2. Cc1cc(CC(=O)O)n(C)c1C(=O)c1ccc(Cl)cc1 [ZOMEPIRAC] = 0.21
3. Oc1ccccc1O = 0.21

Noted for `CC(=O)OCC(CCn1cnc2cnc(N)nc21)COC(C)=O` : its CREATININE reads 0.35

* * *

Species: Rattus norvegicus
Procedure summary: DrugMatrix - Regimen: Daily Repeat
Format: toxicity, organism-based, Sprague-Dawley
Design: regimen Daily Repeat, gender Male, age 6-8 weeks
Cond: in vivo, po, 0 mg/kg, 120 h, tissue Blood, route oral GAVAGE, dose level Control, time 5 day, vehicle 100 % WATER
Labels assigned by NEUTROPHIL range: low interval = under 7%, middle interval = from 7% up to 9%, high interval = 9% and over

1. O=C(O)c1cccnc1 = middle interval

Field: next compound
Qu. For the record `CC[C@H]1OC(=O)[C@H](C)[C@@H](O[C@H]2C[C@@](C)(OC)[C@@H](O)[C@H](C)O2)[C@H](C)[C@@H](O[C@@H]2O[C@H](C)C[C@H](N(C)C)[C@H]2O)[C@](C)(OC)C[C@@H](C)C(=O)[C@H](C)[C@@H](O)[C@]1(C)O` , report the class its NEUTROPHIL corresponds to.
Ans. low interval

* * *

Species on record: Rattus norvegicus
Procedure summary: DrugMatrix - Regimen: Daily Repeat
Format: toxicity, organism-based, Sprague-Dawley
Set-up: regimen Daily Repeat, gender Male, age 6-8 weeks
Cond: in vivo, po, 0 mg/kg, 120 h, tissue Plasma, route oral GAVAGE, dose level Control, time 5 day, vehicle 100 % WATER
Assay readout: POTASSIUM (MEQ/L)
Output spec: scalar in MEQ/L, unitless text.

In the examples that follow, each entry is paired with its recorded POTASSIUM.
1. CCN[C@@H](C)Cc1cccc(C(F)(F)F)c1 = 7.05
2. CC[C@H]1OC(=O)[C@H](C)[C@@H](O[C@H]2C[C@@](C)(OC)[C@@H](O)[C@H](C)O2)[C@H](C)[C@@H](O[C@@H]2O[C@H](C)C[C@H](N(C)C)[C@H]2O)[C@](C)(O)C[C@@H](C)CN(C)[C@H](C)[C@@H](O)[C@]1(C)O = 5.99

Turning now to a further molecule:
Noted for `Nc1ccc(S(=O)(=O)Nc2ncccn2)cc1` : its POTASSIUM reads 7.05

# credit: ChEMBL document CHEMBL3885881
